- Species on record: Rattus norvegicus
- experiment description: Open TG-GATES - Regimen: Daily Repeat
- Assay type: toxicity, organism-based, Sprague-Dawley
- Set-up: regimen Daily Repeat, gender Male, age 6 weeks
- condition info: in vivo, po, 0 mg/kg, […], tissue Plasma, route gavage, dose level Control, time 14 day
quantity measured: ALP (IU/L)

[[record]]
entry_smiles = "CCCc1cc(=O)[nH]c(=S)[nH]1"
unit = "IU/L"
recorded_result = 719.8

[[record]]
entry_smiles = "CC(C)NNC(=O)c1ccncc1"
unit = "IU/L"
recorded_result = 1298.6

[[record]]
entry_smiles = "O=C(OC[C@H]1O[C@@H](OC(=O)c2cc(O)c(O)c(OC(=O)c3cc(O)c(O)c(O)c3)c2)[C@H](OC(=O)c2cc(O)c(O)c(OC(=O)c3cc(O)c(O)c(O)c3)c2)[C@@H](OC(=O)c2cc(O)c(O)c(OC(=O)c3cc(O)c(O)c(O)c3)c2)[C@@H]1OC(=O)c1cc(O)c(O)c(OC(=O)c2cc(O)c(O)c(O)c2)c1)c1cc(O)c(O)c(OC(=O)c2cc(O)c(O)c(O)c2)c1"
unit = "IU/L"
recorded_result = 806.2


---

- Organism: Rattus norvegicus
- experiment description: Open TG-GATES - Regimen: Single
- Format: toxicity, organism-based, Sprague-Dawley
- Parameters: regimen Single, gender Male, age 6 weeks
- condition info: in vivo, po, 0 mg/kg, 6 h, tissue Plasma, route gavage, dose level Control
quantity measured: RALB

[[record]]
molecule = "CN/C(=N/CCSCc1nc[nH]c1C)NC#N [CIMETIDINE]"
recorded_result = "3.3 g/dL"

[[record]]
molecule = "NC1=NC(=O)C(c2ccccc2)O1 (stereo not drawn) [PEMOLINE]"
recorded_result = "2.6 g/dL"

[[record]]
molecule = "CCOc1ccc(NC(C)=O)cc1 [PHENACETIN]"
recorded_result = "2.5 g/dL"


---

The following molecules are shown together with reported ALP values.
- Species: Rattus norvegicus
- experiment description: Open TG-GATES - Regimen: Single
- Format: toxicity, organism-based, Sprague-Dawley
- Set-up: regimen Single, gender Male, age 6 weeks
- condition info: in vivo, po, 0 mg/kg, 24 h, tissue Plasma, route gavage, dose level Control
quantity measured: ALP (IU/L)

[[record]]
molecule = "Nc1c2c(nc3ccccc13)CCCC2"
quantity_measured = "ALP"
recorded_result = 1572.4

[[record]]
molecule = "COC(=O)C1=C(C)NC(C)=C(C(=O)OC)C1c1ccccc1[N+](=O)[O-]"
quantity_measured = "ALP"
recorded_result = 1663.2

[[record]]
molecule = "CN/C(=N/CCSCc1nc[nH]c1C)NC#N"
quantity_measured = "ALP"
recorded_result = 959.8

[[record]]
molecule = "CCCc1cc(=O)[nH]c(=S)[nH]1"
quantity_measured = "ALP"
recorded_result = 974.2

[[record]]
molecule = "CNC(=C[N+](=O)[O-])NCCSCc1ccc(CN(C)C)o1"
quantity_measured = "ALP"
recorded_result = 872.4

[[record]]
molecule = "O=C(OC[C@H]1O[C@@H](OC(=O)c2cc(O)c(O)c(OC(=O)c3cc(O)c(O)c(O)c3)c2)[C@H](OC(=O)c2cc(O)c(O)c(OC(=O)c3cc(O)c(O)c(O)c3)c2)[C@@H](OC(=O)c2cc(O)c(O)c(OC(=O)c3cc(O)c(O)c(O)c3)c2)[C@@H]1OC(=O)c1cc(O)c(O)c(OC(=O)c2cc(O)c(O)c(O)c2)c1)c1cc(O)c(O)c(OC(=O)c2cc(O)c(O)c(O)c2)c1"
quantity_measured = "ALP"
recorded_result = 821.8

[[record]]
molecule = "CN(C)CCC(c1ccc(Cl)cc1)c1ccccn1 (stereo not drawn)"
quantity_measured = "ALP"
recorded_result = 1528.4

[[record]]
molecule = "Cc1nnc2n1-c1ccc(Cl)cc1C(c1ccccc1Cl)=NC2"
quantity_measured = "ALP"
recorded_result = 1736


Recorded values, source ChEMBL document CHEMBL3885861.
